Hi there, I'd appreciate the recorded DLK1 expression Ct value for every entry that follows.
test system: human induced hepatic stem cells AFB1-1; test: Quantitative RT-PCR, differentiation with TGF-β signaling inhibitors (Example 12); type: cell-based; settings: cell samples Nos. 1545-1549: 0.5 μM inhibitor in ReproStem (bFGF-free), no feeder cells, Matrigel, 13 days after seeding
Structures can show the parent of a compound that is named as a salt.

Past entries and their recorded results:
Cc1cccc(-c2[nH]c(C(C)(C)C)nc2-c2ccc3nccnc3c2)n1	18.66
Cc1cccc(-c2nn(C(=S)Nc3ccccc3)cc2-c2ccnc3ccccc23)n1	18.15
Fc1ccc(Cl)cc1-c1nc(Nc2ccncc2)c2nccnc2n1	19.1

Dear reader, for each entry below, please note its DLK1 expression Ct value.
1. Cc1cccc(-c2nc(C(C)(C)C)[nH]c2-c2ccc3c(c2)OCO3)n1 [compound 616453, HCl]
2. Cc1cccc(-c2[nH]c(C(C)(C)C)nc2-c2ccc3c(c2)OCO3)n1.Cl

**Result**
18.74
18.77

* * *

system: human induced hepatic stem cells AFB1-1; experiment: Quantitative RT-PCR, differentiation with TGF-β signaling inhibitors (Example 12); type: cell-based; settings: cell samples Nos. 1545-1549: 0.5 μM inhibitor in ReproStem (bFGF-free), no feeder cells, Matrigel, 13 days after seeding
Counter-ions that a name gives are not always drawn.
Reported property: ALB expression Ct value
Give bare numbers.

Fc1ccc(Cl)cc1-c1nc(Nc2ccncc2)c2nccnc2n1	21.35

Kindly give each listed record's ALB expression Ct value.
1. Cc1cccc(-c2nc(C(C)(C)C)[nH]c2-c2ccc3c(c2)OCO3)n1 [compound 616453, HCl]
2. Cc1cccc(-c2[nH]c(C(C)(C)C)nc2-c2ccc3c(c2)OCO3)n1.Cl
3. Cc1cccc(-c2[nH]c(C(C)(C)C)nc2-c2ccc3nccnc3c2)n1
4. Cc1cccc(-c2nn(C(=S)Nc3ccccc3)cc2-c2ccnc3ccccc23)n1

**Result**
1. 25.55
2. 23.2
3. 24.67
4. 20.95

* * *

tested on: human induced hepatic stem cells AFB1-1; test: Quantitative RT-PCR, differentiation with TGF-β signaling inhibitors (Example 12); type: cell-based; settings: housekeeping gene; cell samples Nos. 1545-1549: 0.5 μM inhibitor in ReproStem (bFGF-free), no feeder cells, Matrigel, 13 days after seeding
Reported property: GAPDH expression Ct value
Give bare numbers.

Count: 2. Required value per item: GAPDH expression Ct value.
1. Fc1ccc(Cl)cc1-c1nc(Nc2ccncc2)c2nccnc2n1 [compound 616456]
2. Cc1cccc(-c2[nH]c(C(C)(C)C)nc2-c2ccc3nccnc3c2)n1 [compound 616459]

**Result**
1. 13.72
2. 14.24

* * *

tested on: human induced hepatic stem cells AFB1-1; test: Quantitative RT-PCR, differentiation with TGF-β signaling inhibitors (Example 12); type: cell-based; conditions: cell samples Nos. 1545-1549: 0.5 μM inhibitor in ReproStem (bFGF-free), no feeder cells, Matrigel, 13 days after seeding
Counter-ions that a name gives are not always drawn.
I'd be grateful if you could share measured KRT19 expression Ct value for these entries.
Numbers only.

Would you mind giving KRT19 expression Ct value for every compound in the list below?
1. Cc1cccc(-c2nn(C(=S)Nc3ccccc3)cc2-c2ccnc3ccccc23)n1
2. Cc1cccc(-c2[nH]c(C(C)(C)C)nc2-c2ccc3c(c2)OCO3)n1.Cl
3. Fc1ccc(Cl)cc1-c1nc(Nc2ccncc2)c2nccnc2n1
4. Cc1cccc(-c2[nH]c(C(C)(C)C)nc2-c2ccc3nccnc3c2)n1

**Result**
1. 22.05
2. 20.33
3. 20.45
4. 20.36

**Query** Please give the measured KRT19 expression Ct value for this compound: Cc1cccc(-c2nc(C(C)(C)C)[nH]c2-c2ccc3c(c2)OCO3)n1 [compound 616453, HCl]
**Result** 20.29

* * *

tested on: human induced hepatic stem cells AFB1-1; experiment: Quantitative RT-PCR, differentiation with TGF-β signaling inhibitors (Example 12); type: cell-based; details: housekeeping gene; cell samples Nos. 1545-1549: 0.5 μM inhibitor in ReproStem (bFGF-free), no feeder cells, Matrigel, 13 days after seeding
Where a name gives a salt, the structure may show the parent alone.
Reported property: GAPDH expression Ct value
Answers are plain numbers.

Cc1cccc(-c2nc(C(C)(C)C)[nH]c2-c2ccc3c(c2)OCO3)n1 [compound 616453, HCl]	13.76
Cc1cccc(-c2[nH]c(C(C)(C)C)nc2-c2ccc3c(c2)OCO3)n1.Cl [SB-505124]	13.25

Note: attention shifts to another entry.
**Query** What value of GAPDH expression Ct value has been reported for the following compound? Cc1cccc(-c2nn(C(=S)Nc3ccccc3)cc2-c2ccnc3ccccc23)n1 [A-83-01]
**Result** 14.22

Attribution: patent US20130071931A1
